system-tested: UniProt:P70343
Sequence (P70343 1-80 limits assumed): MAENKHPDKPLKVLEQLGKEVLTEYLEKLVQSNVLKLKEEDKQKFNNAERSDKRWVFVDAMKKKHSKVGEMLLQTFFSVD
protocol-summary: microscale thermophoresis
Assay type: binding
pKd: −log10 of the molar value.
measured-quantity: pKd

Prompt: Hi! What's the reported pKd for `CCCCCCCCCCCCCCCC(=O)OC[C@@H](O)COP(=O)([O-])OCC[N+](C)(C)C` on UniProt:P70343?
Completion: ~5.00
